targetEntity: UniProt:P18031
Sequence (P18031 whole entry): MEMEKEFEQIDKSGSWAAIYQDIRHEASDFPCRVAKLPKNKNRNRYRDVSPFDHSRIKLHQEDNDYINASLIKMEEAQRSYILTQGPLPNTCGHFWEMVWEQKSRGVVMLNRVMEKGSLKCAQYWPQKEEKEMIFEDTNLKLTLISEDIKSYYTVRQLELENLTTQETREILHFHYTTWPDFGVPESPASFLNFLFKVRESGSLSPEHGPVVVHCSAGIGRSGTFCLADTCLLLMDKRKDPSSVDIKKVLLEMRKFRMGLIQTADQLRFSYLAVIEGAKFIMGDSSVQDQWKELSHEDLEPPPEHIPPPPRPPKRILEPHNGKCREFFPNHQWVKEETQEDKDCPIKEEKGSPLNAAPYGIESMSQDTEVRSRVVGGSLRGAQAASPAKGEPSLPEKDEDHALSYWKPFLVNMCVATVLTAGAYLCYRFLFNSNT
experimentDescription: Inhibition of human recombinant PTP1B assessed as p-nitorphenol production after 30 mins
pIC50: −log10 of the molar value.
propertyLabel: pIC50

In [3]: df
Out[3]:
                                   compound    targetentity  propertylabel  assayvalue
0  CC(C)=CCc1cc(-c2coc3cc(O)cc(O)c3c2=O)cc(O)c1O [GLYCYRRHISOFLAVONE]  UniProt:P18031          pIC50        4.23
1  CC(C)=CCc1cc2c(=O)cc(-c3ccc(O)cc3)oc2cc1O [LICOFLAVANONE A]  UniProt:P18031          pIC50        4.26
2  COc1cc(O)cc2occ(-c3cc(O)c(O)c(CC=C(C)C)c3)c(=O)c12 [GLISOFLAVONE]  UniProt:P18031          pIC50        4.55

I. COc1c(CC=C(C)C)c(O)cc2oc(-c3ccc(O)cc3O)cc12 [LICOCOUMARONE]
II. COc1c(CC=C(C)C)c(O)cc(O)c1-c1oc2cc(O)ccc2c1C [GLYCYBENZOFURAN]
III. CCCCCCCCCCCCCCCC(=O)C1=C(O)[C@@H](CO)OC1=O
IV. COc1c(CC=C(C)C)c(O)cc2oc(=O)c(-c3ccc(O)cc3O)cc12 [GLYCYCOUMARIN]
Query string: # desc sort on pIC50 across 4 compounds // ordering of labels required in reply
Result string: III, II, I, IV
